// provenance: the supplement of paper PMC10065799

# experimental.target: EPHB1 (UniProt P54762)
# Sequence (P54762 whole entry, looked up): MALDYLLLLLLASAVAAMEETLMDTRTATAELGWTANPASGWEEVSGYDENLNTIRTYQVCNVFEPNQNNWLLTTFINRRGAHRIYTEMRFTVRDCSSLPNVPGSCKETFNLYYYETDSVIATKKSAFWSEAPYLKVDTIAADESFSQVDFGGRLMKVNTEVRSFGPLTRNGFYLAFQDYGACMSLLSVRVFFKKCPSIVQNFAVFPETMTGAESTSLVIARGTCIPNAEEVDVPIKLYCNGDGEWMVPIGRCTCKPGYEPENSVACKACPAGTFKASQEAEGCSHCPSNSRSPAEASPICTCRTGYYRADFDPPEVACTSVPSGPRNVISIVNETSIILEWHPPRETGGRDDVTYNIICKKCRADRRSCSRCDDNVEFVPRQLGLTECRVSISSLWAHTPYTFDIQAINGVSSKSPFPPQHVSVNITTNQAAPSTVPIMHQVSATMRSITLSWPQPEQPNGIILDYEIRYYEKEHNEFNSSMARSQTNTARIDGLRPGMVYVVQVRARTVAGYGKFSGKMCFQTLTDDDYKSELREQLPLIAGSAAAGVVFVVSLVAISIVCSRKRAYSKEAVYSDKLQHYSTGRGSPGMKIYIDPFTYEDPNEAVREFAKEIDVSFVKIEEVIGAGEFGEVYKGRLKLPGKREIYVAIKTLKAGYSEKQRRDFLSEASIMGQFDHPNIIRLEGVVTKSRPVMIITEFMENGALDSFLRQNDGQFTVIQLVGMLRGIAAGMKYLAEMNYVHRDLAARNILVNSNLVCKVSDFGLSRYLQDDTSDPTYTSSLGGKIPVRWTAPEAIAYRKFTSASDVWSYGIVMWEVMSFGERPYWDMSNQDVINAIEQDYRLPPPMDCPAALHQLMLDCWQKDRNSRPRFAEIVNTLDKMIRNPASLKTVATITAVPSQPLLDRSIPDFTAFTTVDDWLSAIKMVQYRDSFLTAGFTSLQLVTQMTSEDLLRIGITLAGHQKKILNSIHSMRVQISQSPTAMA
# protocol.description: phosphorylation enrichment, bacterial display (enrichment ratio); higher = better substrate or ligand; peptides without Tyr show the background;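 further: 11-residue human phosphosite peptides and single-mutation variants displayed on the E. coli surface, counted by deep sequencing, each peptide's frequency after selection divided by its frequency in the unselected input library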;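 further: frequency after pTyr selection over input frequency; kinase dosed for 20-30% of maximal phosphorylation in three min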
measured.parameter: phosphorylation enrichment
Answers are plain numbers.

# sequence, phosphorylation enrichment
rows = [
    ("RLRKYHLGKYL [KLB_Y906_Y906H]", 0.439),
    ("NWGSPYKSNGC [ZNF347_Y261]", 0.459),
    ("GSRGKYFSGFR [ATM_Y332_S333F]", 0.425),
    ("EYQKKYSDADI [CKAP5_Y1860_K1857Q]", 0.491),
    ("EGNEQYEGYCV [GRIA3_Y451_R450Q]", 0.556),
    ("GYYDLYGGEKF [PTPN11_Y66_D61G]", 3.27),
    ("DTYDPYLDIAL [USP36_Y268_V271I]", 1.03),
    ("APTSGYREFVH [IL4R_Y575_Q576R]", 0.378),
]

Batch request: phosphorylation enrichment per item, same order as input.
1. GHNDVYISKHV [GRIN2A_Y1423_E1426K]
2. CTTIHYNFVCN [TP53_Y234_M237V_YF]
3. SDLTDYLMKIL [ACTA1_Y190_R185S]
4. IKKLIYVHLVI [JAGN1_Y42]
5. FSEVRYMKEPY [HIPK4_Y170_V171M]
6. IRRIAYEFVEM [ADA_Y84_K80R]
7. RKETFYILSCR [GUCY2C_Y681_T682I]

Result:
1: 0.254; 2: 0.678; 3: 0.578; 4: 0.669; 5: 0.425; 6: 0.343; 7: 0.546
